- assayed_target: His-tagged canine IL-31 (interleukin 31) recombinant protein (canine)
- assay_summary: BLI (Gator), biotinylated antibody on streptavidin probe, canine IL-31 as analyte
experimental_endpoint: kon (M⁻¹ s⁻¹)
Respond with the bare value in M⁻¹ s⁻¹.

Known kon results, listed for orientation:
binder	reported_result
7475-H1K2-canIgGB (antibody, V domains shown) VH: EVQLVESGGDLVKPGGSLRLSCVASGFTFSSYAMSWVRQAPGKGLQWVAYISNGGDYIFYADTVKGRFTISRDNARNTLYLQMNSLRSEDTAVYYCTRRGHYNTSSYWYFDVWGQGTLVTVSS VL: EIVMTQSPASLSLSQEEKVTITCKASENVGTYVSWYQQKPGQAPKLLIYGASNRYTGVPSRFSGSGSATDFTLTISSVEPEDVAVYYCGQSYSYPPTFGAGTKVELKR	96500
6465-H3K3-canIgGB (antibody, V domains shown) VH: EVQLVESGGDLVKPGGSLRLSCVASGYSFTNYYLYWVRQAPGKGLEWVAELNPRNGGTNLNAKFKTRFTISRDNAKNMAYLQMNSLRAEDTAVYYCTRGGTTVVVRDVMDFWGQGTLVTVSS VL: DIVMTQTPLSLSVSPGEPASISCRASESVDSYGNSFMHWYRQKPGQSPQLLIYRASNLESGVPDRFSGSGSGTDFTLRISRVEADDAGVYYCQQSNEDPYTFGQGTKLEIKR	812000

Moving on to the next binder.
Task: Please look up its kon: 7475-H3K3-canIgGB (antibody, V domains shown) VH: EVQLVESGGDLVKPGGSLRLSCVASGFTFSSYAMSWVRQAPGKGLQWVARISNGGDYIFYADTVKGRFTISRDNAKNTLYLQMNSLRAEDTAMYYCTRRGHYNTSSYWYFDVWGQGTLVTVSS VL: EIVMTQSPASLSLSQEEKVTITCKASENVGTYVSWYQQKPGQAPKLLIYGASNRYTGVPSRFSGSGSGTDFSFTISSLEPEDVAVYYCGQSYSYPPTFGAGTKVELKR
Output: 611000
